Molecular target: T1, human CD3 epsilon (human, UniProt P07766)
T1 chain: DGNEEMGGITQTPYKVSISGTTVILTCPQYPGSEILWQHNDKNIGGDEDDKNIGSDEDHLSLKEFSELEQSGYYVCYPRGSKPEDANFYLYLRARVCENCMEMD
Experiment: SPR
READOUT NAME: pKd
Field pKd (float): negative decimal logarithm of the concentration in molar.

BINDER	pKd
19-26 (antibody, V domains shown) VH: EVKLLESGGGLVQPKGSLKLSCAASGFTFNTYAMNWVRQAPGKGLEWVARIRSKYNNYATYYADSVKDRFTISRDDSQSILYLQMNNLKTEDTAMYYCVRHGNFGNSYISWWAYWGQGTLVTVSA VL: QAVVTQESALTTSPGETVTLTCKSSTGAVTTSNYANWVQEKPDHLFTGLIGGTNLHAPGVPARFSGSLIGDKAALTITGAQTEDEAIYFCALWYSNLWVFGGGTKLTVL	9.74
19-15 (antibody, V domains shown) VH: EVKLLESGGGLVQPKGSLKLSCAASGFTFNTYAMNWVRQAPGKGLEWVARIRSKYNNYATYYAISVKDRFTISRDDSQSILYLQMNNLKTEDTAMYYCVRHGNFGNSYLSYWAYWGQGTLVTVSA VL: QAVVTQESALTTSPGETVTLTCQSSTGAVTTNNYANWVQEKPDHLFTGLIGGTKQRAPGVPARFSGSLIGDKAALTITGAQTEDEAIYFCVLWYSNLWVFGGGTKLTVL	9.84
CD3-19 (antibody, V domains shown) VH: EVKLLESGGGLVQPKGSLKLSCAASGFTFNSYAMNWVRQAPGKGLEWVARIRSKYNNYATYYADSVKDRFTISRDDSQSILYLQMNNLKTEDTAMYYCVRHGNFGNSYLSYWAYWGQGTLVTVSA VL: QAVVTQESALTTSPGETVTLTCDSSTGAVTTSNYANWVQEKPDHLFTGLIGGTQRSAPGVPARFSGSLIGDKAALTITGAQTEDEAIYFCVLWYSNLWVFGGGTKLTVL	9.65

19-37 (antibody, V domains shown) VH: EVKLLESGGGLVQPKGSLKLSCAASGFTFNTYAMNWVRQAPGKGLEWVARIRSKYNNYATYYAISVKDRFTISRDDSQSILYLQMNNLKTEDTAMYYCVRHGNFGNSYISYWAYWGQGTLVTVSA VL: QAVVTQESALTTSPGETVTLTCRSSTGAVTTNNYANWVQEKPDHLFTGLIGGTRLSAPGVPARFSGSLIGDKAALTITGAQTEDEAIYFCVLWYSNLWVFGGGTKLTVL yielded pKd of 11.20
